target.under.test: RORc ligand binding domain (Homo sapiens)
Construct: host or cells: E. coli
assay.details: In Vitro RORc Ligand Binding Assay (25-[3H]hydroxycholesterol radioligand filtration)
protocol.conditions: In Vitro RORc Ligand Binding Assay; Table 4; read-out: RORc IC50
Criterion: IC50 strictly under 30 nM. Met: class 1. Not met: class 0.

1) C[C@H]1CCC(c2ccccc2)S(=O)(=O)N1Cc1ccc(N2CCC(c3nncn3C)CC2)cc1F (single isomer, unassigned) [Example 137] | class 0
2) CC(=O)N1CCN(c2ccc(CN3[C@@H](C)CCC(c4ccccc4C)S3(=O)=O)c(F)c2)CC1 (single isomer, unassigned) [Example 206] | class 1
3) CN/C(=N\C#N)N1CCN(c2ccc(CN3[C@@H](C)CCC(c4ccccc4)S3(=O)=O)c(F)c2)CC1 (stereo partly shown) | class 1
4) CC(=O)N1CCN(c2ccc(CN3[C@@H](C)CCC(c4cccc(Cl)c4)S3(=O)=O)c(F)c2)CC1 (single isomer, unassigned) [Example 185] | class 1
5) CC(=O)N1CCN(c2ccc(CN3CC(C)CCC(c4ccccc4)S3(=O)=O)c(F)c2)CC1 (single isomer, unassigned) [Example 338] | class 1
6) C[C@H]1CCC(c2ccccc2)S(=O)(=O)N1Cc1ccc(C(=O)N2CCCC(O)CC2)cc1 (stereo partly shown) | class 0
7) CC(=O)N1CCN(c2ccc(CN3[C@@H](C)CCC(c4ccccc4)S3(=O)=O)c(F)c2)C[C@@H]1C#N (stereo partly shown) | class 0
8) CS(=O)(=O)N1CCC(Nc2ccc(CN3CCCCC(c4ccccc4)S3(=O)=O)cc2)CC1 (single isomer, unassigned) [Example 326] | class 1
9) CC(=O)N1CCN(c2ccc(CN3CCCC(c4ccc(F)cc4)S3(=O)=O)c(F)c2)CC1 (single isomer, unassigned) [Example 11] | class 0
10) C[C@H]1CCC(c2ccccc2)S(=O)(=O)N1Cc1ccc(OC2CCN(S(C)(=O)=O)CC2)nc1 (single isomer, unassigned) [Example 34] | class 0
11) C[C@H]1CCC(c2ccccc2)S(=O)(=O)N1Cc1ccc(C(=O)N2C3CCC2C(C(N)=O)C3)cc1 (stereo partly shown) | class 0
12) C[C@H]1CCC(c2ccccc2)S(=O)(=O)N1Cc1ccc(N2CCC(c3n[nH]c(=O)o3)CC2)cc1F (single isomer, unassigned) [Example 143] | class 0

---

target.under.test: RORc ligand binding domain (Homo sapiens, UniProt P51449)
Construct: host or cells: E. coli
Sequence (P51449 269-508 limits assumed): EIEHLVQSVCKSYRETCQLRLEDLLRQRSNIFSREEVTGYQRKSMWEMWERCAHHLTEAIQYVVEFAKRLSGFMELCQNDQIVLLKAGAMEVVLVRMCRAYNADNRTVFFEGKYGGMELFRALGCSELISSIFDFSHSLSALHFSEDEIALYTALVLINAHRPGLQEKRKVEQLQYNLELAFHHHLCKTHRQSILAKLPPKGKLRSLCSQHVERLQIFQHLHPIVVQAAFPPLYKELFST
assay.details: In Vitro RORc Ligand Binding Assay (25-[3H]hydroxycholesterol radioligand filtration)
protocol.conditions: In Vitro RORc Ligand Binding Assay; Table 4; read-out: RORc IC50
pIC50: −log10 of the molar value.
value.kind: pIC50

1) O=c1[nH]nc(C2CCN(c3ccc(CN4CCCCC(c5ccccc5)S4(=O)=O)cc3)CC2)o1 (single isomer, unassigned) [Example 343] | 6.35
2) C[C@H]1CCC(c2ccccc2)S(=O)(=O)N1Cc1ccc(N2CCC(S(=O)(=O)N(C)C)CC2)cc1F (single isomer, unassigned) [Example 103] | 6.84
3) C[C@H]1CCC(c2ccccc2)S(=O)(=O)N1Cc1ccc(N2CCC(c3ncon3)CC2)cc1F (stereo partly shown) | 7.40
4) CC(=O)N1CCN(c2ccc(CN3C4CCCC4CC(c4ccccc4)S3(=O)=O)c(F)c2)CC1 (single isomer, unassigned) [Example 251] | 6.66
5) CC(=O)N1CCN(c2ccc(CN3CCC(C)CC(c4ccccc4)S3(=O)=O)c(F)c2)CC1 (single isomer, unassigned) [Example 333] | 7.49
6) CN/C(=C\[N+](=O)[O-])N1CCN(c2ccc(CN3[C@@H](C)CCC(c4ccccc4)S3(=O)=O)c(F)c2)CC1 (stereo partly shown) | 6.59
7) C[C@H]1CCC(c2ccccc2)S(=O)(=O)N1Cc1ccc(C(=O)N[C@@H]2CCN(S(C)(=O)=O)C2)cc1 (stereo partly shown) | 5.45
8) CS(=O)(=O)N1CCC(Nc2ccc(CN3CC4(CC4)CC(c4ccccc4)S3(=O)=O)c(F)c2)CC1 (single isomer, unassigned) [Example 253] | 8.15
9) C[C@@H]1CCC(c2ccccc2)S(=O)(=O)N1Cc1ccc(OC2CCN(S(C)(=O)=O)CC2)cc1F (stereo partly shown) | 8.22
10) C[C@H]1CCC(c2ccccc2)S(=O)(=O)N1Cc1ccc(N2CCC(c3cnn[nH]3)CC2)cc1F (single isomer, unassigned) [Example 255] | 7.92
11) CC(=O)N1CCN(c2ccc(CN3C[C@H](C)CC(c4ccccc4)S3(=O)=O)c(F)c2)CC1 (single isomer, unassigned) [Example 169] | 6.88
12) C[C@H]1CCC(c2ccccc2)S(=O)(=O)N1Cc1ccc(C(=O)N2CCC(CCNS(C)(=O)=O)CC2)cc1 (stereo partly shown) | 5.75
13) C[C@H]1CCC(c2ccccc2)S(=O)(=O)N1Cc1ccc(N2CCN(C3=CC(=O)CC(C)(C)C3)CC2)cc1F (stereo partly shown) | 6.19

---

target.under.test: RORc ligand binding domain (Homo sapiens)
Construct: host or cells: E. coli
assay.details: In Vitro RORc Ligand Binding Assay (25-[3H]hydroxycholesterol radioligand filtration)
protocol.conditions: In Vitro RORc Ligand Binding Assay; Table 4; read-out: RORc IC50
pIC50: −log10 of the molar value.
The following compounds are listed with their measured pIC50 values.
value.kind: pIC50

1) CC(=O)N1CCN(c2ccc(CN3C4CC(C4)CC(c4ccccc4)S3(=O)=O)c(F)c2)CC1 (single isomer, unassigned) [Example 301] | 6.51
2) CC(=O)N1CCN(c2ccc(CN3CC(C)CCC(c4ccccc4)S3(=O)=O)c(F)c2)CC1 (single isomer, unassigned) [Example 340] | 7.27
3) C[C@H]1CCC(c2ccccc2)S(=O)(=O)N1Cc1ccc(N2CCC3(COC3)C2)cc1F (single isomer, unassigned) [Example 102] | 7.60

---

target.under.test: RORc ligand binding domain (Homo sapiens, UniProt P51449)
Construct: host or cells: E. coli
Sequence (P51449 269-508 limits assumed): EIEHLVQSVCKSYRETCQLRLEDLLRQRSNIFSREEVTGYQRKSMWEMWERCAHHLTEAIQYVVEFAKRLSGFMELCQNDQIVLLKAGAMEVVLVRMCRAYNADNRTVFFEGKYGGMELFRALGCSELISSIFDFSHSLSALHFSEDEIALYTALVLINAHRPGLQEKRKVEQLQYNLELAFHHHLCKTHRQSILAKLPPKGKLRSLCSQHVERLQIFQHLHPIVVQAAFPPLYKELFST
assay.details: In Vitro RORc Ligand Binding Assay (25-[3H]hydroxycholesterol radioligand filtration)
protocol.conditions: In Vitro RORc Ligand Binding Assay; Table 4; read-out: RORc IC50
The label True is reserved for IC50 strictly under 70 nM; False covers values equal to or above it.

1) C[C@H](O)C(=O)N1CCCN(c2ccc(CN3[C@@H](C)CCC(c4ccccc4)S3(=O)=O)c(F)c2)CC1 (single isomer, unassigned) [Example 93] | True
2) CC(=O)N1CCN(c2ccc(CN3[C@@H](C)CCC(c4ccccc4)S3(=O)=O)cc2)CC1 (single isomer, unassigned) [Example 40] | False
3) CCOC(=O)c1ncc2n1CCN(c1ccc(CN3[C@@H](C)CCC(c4ccccc4)S3(=O)=O)c(F)c1)C2 (stereo partly drawn) | False
4) CC(=O)N1CCN(c2ccc(CN3C[C@@H](C)CC(c4ccccc4)S3(=O)=O)c(F)c2)CC1 (single isomer, unassigned) [Example 198] | True
5) C[C@H]1CCC(c2ccccc2)S(=O)(=O)N1Cc1ccc(N2CCN(C(=O)C3CC3)CC2)cc1 (single isomer, unassigned) [Example 61] | True

---

target.under.test: RORc ligand binding domain (Homo sapiens)
Construct: host or cells: E. coli
assay.details: In Vitro RORc Ligand Binding Assay (25-[3H]hydroxycholesterol radioligand filtration)
protocol.conditions: In Vitro RORc Ligand Binding Assay; Table 4; read-out: RORc IC50
Mark met only for IC50 values smaller than 70 nM; exact matches and larger values are not met.

1) C[C@H]1CCC(c2ccccc2)S(=O)(=O)N1Cc1ccc(N2CCCNCC2)cc1F (single isomer, unassigned) [Example 88] | not met
2) C[C@H]1CCC(c2ccccc2)S(=O)(=O)N1Cc1ccc(N2CCC(c3nnn[nH]3)CC2)cc1F (single isomer, unassigned) [Example 141] | met
3) COc1cccc(C2CC[C@H](C)N(Cc3ccc(N4CCN(C(C)=O)CC4)cc3F)S2(=O)=O)c1 (single isomer, unassigned) [Example 190] | not met
4) CC(=O)N1CCN(c2ccc(CN3[C@@H](C(C)C)CCC(c4ccccc4)S3(=O)=O)c(F)c2)CC1 (single isomer, unassigned) [Example 247] | met
5) CC(=O)N1CCN(c2ccc(CN3C(C)CCCC(c4ccccc4)S3(=O)=O)c(F)c2)CC1 (single isomer, unassigned) [Example 330] | met
